Test system: PKB Ser473 phosphorylation in Rat1-myr-HA-p110 alpha cells
Assay: Reverse protein array assay, PKB Ser473 phosphorylation in Rat1-myr-p110 alpha cells
Assay type: cell-based
Settings: 0.5 h, pAkt Ser473, 30 minutes compound incubation, read-out: p-PKB IC50
pIC50: −log10 of the molar value.
quantity.measured: pIC50

>  <molecule>
Cc1nn(C)cc1-n1c(=O)n(C)c2cnc3ccc(-c4ccc(NCCO)nc4)cc3c21 [Example 21.2]

>  <pIC50>
6.43

$$$$

P = CCn1cc(-n2c(=O)n(C)c3cnc4ccc(-c5ccc(OC)nc5)cc4c32)c(C)n1 [Example 2.7]
Q = COc1ncc(-c2ccc3ncc4c(c3c2)n(-c2cn(C(C)C)nc2C)c(=O)n4C)c(OC)n1 [Example 234.3]
Please state the entry with greater pIC50 among P and Q . // return label of chosen record
Q

P = CCNc1ncc(-c2ccc3ncc4c(c3c2)n(-c2cn(C)nc2C)c(=O)n4C)cc1Cl [Example 147]
Q = CCn1nccc1-n1c(=O)n(C)c2cnc3ccc(-c4ccc(OC)nc4)cc3c21 [Example 2.6]
Please state the entry with greater pIC50 among P and Q . // return label of chosen record
P

1 = Cc1nn(C)cc1-n1c(=O)n(C)c2cnc3ccc(-c4ccc(-n5ccnc5C)nc4)cc3c21 [Example 78]
2 = CCn1c(=O)n(-c2cn(C)nc2C)c2c3cc(-c4cncc(N)c4)ccc3ncc21 [Example 245]
Please state the entry with greater pIC50 among 1 and 2 . // return label of chosen record
1
(1: 6.58, 2: 6.14)
